Ki values for Urokinase-type plasminogen activator (Homo sapiens, UniProt P00749) compiled from several publications are listed below.
measured.metric: Ki (nM)

Consider the worked cases shown below.
>  <smi>
CC(C)COc1cccc(-c2nc3cc(F)c(C(=N)N)cc3[nH]2)c1O

>  <measured.metric>
Ki

>  <units.text>
nM

>  <quantitative.readout>
150

$$$$
>  <smi>
CC(C)COc1cccc(-c2nc3ccc(C(=N)N)cc3[nH]2)c1O

>  <measured.metric>
Ki

>  <units.text>
nM

>  <quantitative.readout>
190

$$$$
>  <smi>
N=C(N)c1ccc(CNC(=O)CNC(=O)[C@@H](CO)NS(=O)(=O)Cc2ccc(CN)cc2)cc1

>  <measured.metric>
Ki

>  <units.text>
nM

>  <quantitative.readout>
120

$$$$

P = [H]/N=C(\N)c1ccc(NCc2nc3cc(C4(/C(=N\OCC(=O)OCC)c5ccccn5)CC4)ccc3n2C)cc1
Q = Nc1nc2cc(NC(=O)c3cccc(-c4ccccc4)c3O)ccc2[nH]1
R = N=C(N)NCCC[C@@H](NC(=O)[C@@H](CCc1ccccc1)NC(=O)[C@H](N)CO)C(=O)O
S = N#Cc1cc(-c2ccccc2)n(-c2ccc(Br)cc2)c1N
T = N=C(N)c1cc2ccccc2s1
Rank descending by Ki. Answer by listing the labels in the requested order.
R, P, Q, T, S

* * *

Ki values for Urokinase-type plasminogen activator (Homo sapiens) compiled from several publications are listed below.
measured.metric: Ki (nM)

>  <smi>
N=C(N)c1ccc(CNC(=O)CNC(=O)[C@@H](CO)NS(=O)(=O)Cc2ccncc2)cc1

>  <Ki (nM)>
100

$$$$

a = N=C(N)NCCC[C@@H](NC(=O)[C@@H](CCC1CCCCC1)NC(=O)[C@H](N)CO)C(=O)O
b = N#Cc1cc(-c2ccccc2)n(-c2ccc(Cl)cc2)c1N
Two entries are listed, a and b . Which one carries the higher Ki? // respond with label for picked entry
a
(a: 451000 nM, b: 0.003 nM)

* * *

Ki values for Urokinase-type plasminogen activator (Homo sapiens, UniProt P00749) compiled from several publications are listed below.
measured.metric: Ki (nM)

I = N=C(N)NCCC[C@@H](NC(=O)[C@@H](Cc1ccccc1)NC(=O)[C@H](N)CO)C(=O)O
II = N=C(N)c1ccc2[nH]c(-c3cc(CC(=O)O)cc(Br)c3O)cc2c1
III = N=C(N)c1ccc(CNC(=O)[C@H](CCCN=C(N)N)NC(=O)[C@@H](CO)NS(=O)(=O)Cc2ccccc2)cc1
sort_by: Ki; order: ascending; scope: items listed above Answer by listing the labels in the requested order.
III, II, I

A = NC(N)=Nc1ccc(CNC(=O)NC23CC4CC(CC(C4)C2)C3)cc1
B = N=C(N)c1ccc2nc(-c3cccc(OC4CCCC4)c3O)[nH]c2c1
C = N#Cc1cc(-c2ccccc2)n(Cc2nc3ccccc3[nH]2)c1N
Rank descending by Ki. Answer by listing the labels in the requested order.
A, B, C
